assayed_target: Voltage-gated inwardly rectifying potassium channel KCNH2 (Homo sapiens) (UniProt Q12809)
Sequence (Q12809 whole entry, looked up): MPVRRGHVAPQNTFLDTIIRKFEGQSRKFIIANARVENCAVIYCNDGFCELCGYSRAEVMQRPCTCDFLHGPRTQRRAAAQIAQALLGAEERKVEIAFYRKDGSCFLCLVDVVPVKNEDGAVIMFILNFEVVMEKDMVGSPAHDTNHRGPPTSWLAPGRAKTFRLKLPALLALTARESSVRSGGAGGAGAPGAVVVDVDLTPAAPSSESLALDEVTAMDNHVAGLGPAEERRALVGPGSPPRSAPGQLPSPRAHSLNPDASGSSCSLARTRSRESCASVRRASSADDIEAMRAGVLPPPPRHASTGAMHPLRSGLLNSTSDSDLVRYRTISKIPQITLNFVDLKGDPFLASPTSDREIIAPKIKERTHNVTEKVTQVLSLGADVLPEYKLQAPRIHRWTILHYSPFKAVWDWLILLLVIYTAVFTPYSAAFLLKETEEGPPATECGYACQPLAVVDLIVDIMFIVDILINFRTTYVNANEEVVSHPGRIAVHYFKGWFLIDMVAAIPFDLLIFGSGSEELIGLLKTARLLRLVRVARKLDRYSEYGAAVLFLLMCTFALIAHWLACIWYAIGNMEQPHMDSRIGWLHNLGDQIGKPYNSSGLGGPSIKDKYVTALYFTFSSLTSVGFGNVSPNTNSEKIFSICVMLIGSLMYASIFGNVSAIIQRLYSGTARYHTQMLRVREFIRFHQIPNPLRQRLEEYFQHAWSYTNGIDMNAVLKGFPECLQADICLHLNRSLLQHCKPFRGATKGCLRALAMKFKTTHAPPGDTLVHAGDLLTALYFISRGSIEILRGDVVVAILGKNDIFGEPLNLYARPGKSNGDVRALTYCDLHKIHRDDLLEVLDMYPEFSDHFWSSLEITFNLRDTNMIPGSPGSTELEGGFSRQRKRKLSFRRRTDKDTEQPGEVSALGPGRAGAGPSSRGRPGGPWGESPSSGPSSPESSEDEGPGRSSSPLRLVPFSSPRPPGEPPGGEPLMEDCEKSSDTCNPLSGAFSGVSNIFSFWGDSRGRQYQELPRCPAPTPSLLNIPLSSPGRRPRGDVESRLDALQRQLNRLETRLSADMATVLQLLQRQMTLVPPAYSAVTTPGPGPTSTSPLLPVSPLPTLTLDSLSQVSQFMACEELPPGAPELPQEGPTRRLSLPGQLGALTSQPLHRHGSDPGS
experiment: Human Ether-a-go-go-Related Gene (hERG) channel small molecule antagonists: fluorescence cell-based qHTS assay (AID 1671200); also: nearly all actives have a fitted effect of over 50% in size
test_conditions: hERG-U2OS cells, FluxOR thallium flux fluorescence; series mostly up to 76.8 µM
Records with an inconclusive call do not appear. Active and inactive are the calls of the source. Calls follow the shape of the dose curve; as a rule, active = well fitted inhibition curve with a large enough effect in the repeat runs; inconclusive = weak or mixed curves; inactive = flat fitted curve, though single readings scatter.
Classes used: active, inactive

>  <molecule>
CCN(CC)CCNC(C(=O)OCCC(C)C)c1ccccc1 (configuration not stated)

>  <assayed_target>
Voltage-gated inwardly rectifying potassium channel KCNH2 (Homo sapiens) (UniProt Q12809)

>  <category_label>
active

$$$$
>  <molecule>
FC(F)(F)C(F)(F)C(F)(F)C(F)(F)C(F)(F)C(F)(F)CCI

>  <assayed_target>
Voltage-gated inwardly rectifying potassium channel KCNH2 (Homo sapiens) (UniProt Q12809)

>  <category_label>
inactive

$$$$
>  <molecule>
CCOC(=O)C1=NN(c2ccccc2)C(=O)C1

>  <assayed_target>
Voltage-gated inwardly rectifying potassium channel KCNH2 (Homo sapiens) (UniProt Q12809)

>  <category_label>
inactive

$$$$
>  <molecule>
CCCOc1ccc2nc(NC(=O)OC)[nH]c2c1

>  <assayed_target>
Voltage-gated inwardly rectifying potassium channel KCNH2 (Homo sapiens) (UniProt Q12809)

>  <category_label>
inactive

$$$$
>  <molecule>
Cc1ccc(C(N)=O)cc1N

>  <assayed_target>
Voltage-gated inwardly rectifying potassium channel KCNH2 (Homo sapiens) (UniProt Q12809)

>  <category_label>
inactive

$$$$
>  <molecule>
COCCOCCOCCOCCOC

>  <assayed_target>
Voltage-gated inwardly rectifying potassium channel KCNH2 (Homo sapiens) (UniProt Q12809)

>  <category_label>
inactive

$$$$
>  <molecule>
O=[N+]([O-])c1cc[n+]([O-])cc1

>  <assayed_target>
Voltage-gated inwardly rectifying potassium channel KCNH2 (Homo sapiens) (UniProt Q12809)

>  <category_label>
inactive

$$$$
>  <molecule>
CCOC(=O)CC(C)C

>  <assayed_target>
Voltage-gated inwardly rectifying potassium channel KCNH2 (Homo sapiens) (UniProt Q12809)

>  <category_label>
inactive

$$$$
>  <molecule>
NCc1ccccc1

>  <assayed_target>
Voltage-gated inwardly rectifying potassium channel KCNH2 (Homo sapiens) (UniProt Q12809)

>  <category_label>
inactive

$$$$
>  <molecule>
CCCCCCCCCCCCCCC1CO1 (configuration not stated)

>  <assayed_target>
Voltage-gated inwardly rectifying potassium channel KCNH2 (Homo sapiens) (UniProt Q12809)

>  <category_label>
inactive

$$$$
>  <molecule>
N#Cc1cc2ccccc2c2ccccc12

>  <assayed_target>
Voltage-gated inwardly rectifying potassium channel KCNH2 (Homo sapiens) (UniProt Q12809)

>  <category_label>
inactive

$$$$
>  <molecule>
Cc1ncsc1CCO

>  <assayed_target>
Voltage-gated inwardly rectifying potassium channel KCNH2 (Homo sapiens) (UniProt Q12809)

>  <category_label>
inactive

$$$$
>  <molecule>
CN(c1nccc(=O)[nH]1)C1CCN(c2nc3ccccc3n2Cc2ccc(F)cc2)CC1

>  <assayed_target>
Voltage-gated inwardly rectifying potassium channel KCNH2 (Homo sapiens) (UniProt Q12809)

>  <category_label>
active

$$$$
>  <molecule>
Nc1nc(N)c(-c2ccccc2)s1

>  <assayed_target>
Voltage-gated inwardly rectifying potassium channel KCNH2 (Homo sapiens) (UniProt Q12809)

>  <category_label>
inactive

$$$$
>  <molecule>
CCCCc1cc2ccccc2c(OCCN(C)C)n1

>  <assayed_target>
Voltage-gated inwardly rectifying potassium channel KCNH2 (Homo sapiens) (UniProt Q12809)

>  <category_label>
active

$$$$
>  <molecule>
Nc1ccc(C(=O)Nc2ccccc2N)cc1

>  <assayed_target>
Voltage-gated inwardly rectifying potassium channel KCNH2 (Homo sapiens) (UniProt Q12809)

>  <category_label>
inactive

$$$$
>  <molecule>
CCCCCc1ccc(N)cc1

>  <assayed_target>
Voltage-gated inwardly rectifying potassium channel KCNH2 (Homo sapiens) (UniProt Q12809)

>  <category_label>
inactive

$$$$
>  <molecule>
CC(C)(C)c1cc(CO)cc(C(C)(C)C)c1O

>  <assayed_target>
Voltage-gated inwardly rectifying potassium channel KCNH2 (Homo sapiens) (UniProt Q12809)

>  <category_label>
inactive

$$$$
>  <molecule>
C[C@@H](C1=C(CCN(C)C)Cc2ccccc21)c1ccccn1

>  <assayed_target>
Voltage-gated inwardly rectifying potassium channel KCNH2 (Homo sapiens) (UniProt Q12809)

>  <category_label>
active

$$$$
>  <molecule>
CCCCCCc1ccc(N)cc1

>  <assayed_target>
Voltage-gated inwardly rectifying potassium channel KCNH2 (Homo sapiens) (UniProt Q12809)

>  <category_label>
inactive

$$$$
>  <molecule>
NCCCOCCOCCOCCCN

>  <assayed_target>
Voltage-gated inwardly rectifying potassium channel KCNH2 (Homo sapiens) (UniProt Q12809)

>  <category_label>
inactive

$$$$
>  <molecule>
O=C(O)Cc1cc(I)c(Oc2ccc(O)c(I)c2)c(I)c1

>  <assayed_target>
Voltage-gated inwardly rectifying potassium channel KCNH2 (Homo sapiens) (UniProt Q12809)

>  <category_label>
inactive

$$$$
>  <molecule>
NC(N)=N/N=C/c1c(Cl)cccc1Cl

>  <assayed_target>
Voltage-gated inwardly rectifying potassium channel KCNH2 (Homo sapiens) (UniProt Q12809)

>  <category_label>
inactive

$$$$
>  <molecule>
C=Cc1c(C)c2cc3[nH]c(cc4nc(cc5nc(cc1[nH]2)C(C)=C5CCC(=O)O)C(CCC(=O)O)=C4C)c(C)c3C=C

>  <assayed_target>
Voltage-gated inwardly rectifying potassium channel KCNH2 (Homo sapiens) (UniProt Q12809)

>  <category_label>
inactive

$$$$
>  <molecule>
O=C(O)c1cn(C2CC2)c2cc(Cl)c(F)cc2c1=O

>  <assayed_target>
Voltage-gated inwardly rectifying potassium channel KCNH2 (Homo sapiens) (UniProt Q12809)

>  <category_label>
inactive

$$$$
>  <molecule>
O=C(O)c1cccc(N(Cc2cccnc2)c2ccc(OC(F)F)c(OC(F)F)c2)c1

>  <assayed_target>
Voltage-gated inwardly rectifying potassium channel KCNH2 (Homo sapiens) (UniProt Q12809)

>  <category_label>
inactive

$$$$
>  <molecule>
CC(C(=O)O)c1ccc(C(=O)c2ccccc2)s1 (configuration not stated)

>  <assayed_target>
Voltage-gated inwardly rectifying potassium channel KCNH2 (Homo sapiens) (UniProt Q12809)

>  <category_label>
inactive

$$$$
>  <molecule>
O=C(NS(=O)(=O)/C=C/c1cccs1)c1ccc(F)cc1Br

>  <assayed_target>
Voltage-gated inwardly rectifying potassium channel KCNH2 (Homo sapiens) (UniProt Q12809)

>  <category_label>
inactive

$$$$
>  <molecule>
NC1CCN(c2nc3c(cc2F)c(=O)c(C(=O)O)cn3-c2ccc(F)cc2F)C1 (configuration not stated)

>  <assayed_target>
Voltage-gated inwardly rectifying potassium channel KCNH2 (Homo sapiens) (UniProt Q12809)

>  <category_label>
inactive

$$$$
>  <molecule>
O=C(O)Cc1sc(-c2ccccc2)nc1-c1ccc(Cl)cc1

>  <assayed_target>
Voltage-gated inwardly rectifying potassium channel KCNH2 (Homo sapiens) (UniProt Q12809)

>  <category_label>
inactive

$$$$
>  <molecule>
CCN(CC)CCOC(=O)C1(c2ccccc2)CCCC1

>  <assayed_target>
Voltage-gated inwardly rectifying potassium channel KCNH2 (Homo sapiens) (UniProt Q12809)

>  <category_label>
inactive

$$$$
>  <molecule>
Cn1c(=O)c2c(ncn2CC(O)CO)n(C)c1=O (configuration not stated)

>  <assayed_target>
Voltage-gated inwardly rectifying potassium channel KCNH2 (Homo sapiens) (UniProt Q12809)

>  <category_label>
inactive

$$$$
>  <molecule>
ClC(Cl)(Cl)c1ccc(C(Cl)(Cl)Cl)cc1

>  <assayed_target>
Voltage-gated inwardly rectifying potassium channel KCNH2 (Homo sapiens) (UniProt Q12809)

>  <category_label>
active

$$$$
>  <molecule>
CN1CCC[C@@H]1c1cccnc1

>  <assayed_target>
Voltage-gated inwardly rectifying potassium channel KCNH2 (Homo sapiens) (UniProt Q12809)

>  <category_label>
inactive

$$$$
>  <molecule>
C=CC(=O)OCCOC(=O)CCC(=O)O

>  <assayed_target>
Voltage-gated inwardly rectifying potassium channel KCNH2 (Homo sapiens) (UniProt Q12809)

>  <category_label>
inactive

$$$$
>  <molecule>
CC[C@H](C)[C@@H](C(=O)O)n1sc2ccccc2c1=O

>  <assayed_target>
Voltage-gated inwardly rectifying potassium channel KCNH2 (Homo sapiens) (UniProt Q12809)

>  <category_label>
inactive

$$$$
>  <molecule>
CN1CCC(=C2c3ccccc3CCc3sccc32)CC1

>  <assayed_target>
Voltage-gated inwardly rectifying potassium channel KCNH2 (Homo sapiens) (UniProt Q12809)

>  <category_label>
active

$$$$
>  <molecule>
O=C=NC1CCC(CC2CCC(N=C=O)CC2)CC1 (configuration not stated)

>  <assayed_target>
Voltage-gated inwardly rectifying potassium channel KCNH2 (Homo sapiens) (UniProt Q12809)

>  <category_label>
inactive

$$$$
>  <molecule>
O=C(O)COC(=O)Cc1ccccc1Nc1c(Cl)cccc1Cl

>  <assayed_target>
Voltage-gated inwardly rectifying potassium channel KCNH2 (Homo sapiens) (UniProt Q12809)

>  <category_label>
inactive

$$$$
>  <molecule>
CCOc1ccc(NC(=O)CC(C)=O)cc1

>  <assayed_target>
Voltage-gated inwardly rectifying potassium channel KCNH2 (Homo sapiens) (UniProt Q12809)

>  <category_label>
inactive

$$$$
>  <molecule>
CN(C)CCCOc1nn(Cc2ccccc2)c2ccccc12

>  <assayed_target>
Voltage-gated inwardly rectifying potassium channel KCNH2 (Homo sapiens) (UniProt Q12809)

>  <category_label>
active

$$$$
>  <molecule>
CCCCOC(=O)/C=C\C(=O)OCCCC

>  <assayed_target>
Voltage-gated inwardly rectifying potassium channel KCNH2 (Homo sapiens) (UniProt Q12809)

>  <category_label>
inactive

$$$$
>  <molecule>
O=C(O)C(c1ccc(Cl)cc1)c1ccc(Cl)cc1

>  <assayed_target>
Voltage-gated inwardly rectifying potassium channel KCNH2 (Homo sapiens) (UniProt Q12809)

>  <category_label>
inactive

$$$$
>  <molecule>
Cc1ccccc1N=Nc1ccc(N=Nc2c(O)ccc3ccccc23)c(C)c1

>  <assayed_target>
Voltage-gated inwardly rectifying potassium channel KCNH2 (Homo sapiens) (UniProt Q12809)

>  <category_label>
inactive

$$$$
>  <molecule>
CC[C@@H]1C[C@H](N(Cc2cc(C(F)(F)F)cc(C(F)(F)F)c2)C(C)=O)c2cc(C(F)(F)F)ccc2N1C(=O)OC(C)C

>  <assayed_target>
Voltage-gated inwardly rectifying potassium channel KCNH2 (Homo sapiens) (UniProt Q12809)

>  <category_label>
inactive

$$$$
>  <molecule>
c1ccc(CNCc2ccccc2)cc1

>  <assayed_target>
Voltage-gated inwardly rectifying potassium channel KCNH2 (Homo sapiens) (UniProt Q12809)

>  <category_label>
inactive

$$$$
>  <molecule>
CC(C)(C)c1cc(CCC(=O)OCC(COC(=O)CCc2cc(C(C)(C)C)c(O)c(C(C)(C)C)c2)(COC(=O)CCc2cc(C(C)(C)C)c(O)c(C(C)(C)C)c2)COC(=O)CCc2cc(C(C)(C)C)c(O)c(C(C)(C)C)c2)cc(C(C)(C)C)c1O

>  <assayed_target>
Voltage-gated inwardly rectifying potassium channel KCNH2 (Homo sapiens) (UniProt Q12809)

>  <category_label>
inactive

$$$$
>  <molecule>
Cc1cc(O)ccc1N

>  <assayed_target>
Voltage-gated inwardly rectifying potassium channel KCNH2 (Homo sapiens) (UniProt Q12809)

>  <category_label>
inactive

$$$$
>  <molecule>
N#CCCNCCC#N

>  <assayed_target>
Voltage-gated inwardly rectifying potassium channel KCNH2 (Homo sapiens) (UniProt Q12809)

>  <category_label>
inactive

$$$$
>  <molecule>
CCCC(=O)OCC

>  <assayed_target>
Voltage-gated inwardly rectifying potassium channel KCNH2 (Homo sapiens) (UniProt Q12809)

>  <category_label>
inactive

$$$$
>  <molecule>
CC(C)CC=O

>  <assayed_target>
Voltage-gated inwardly rectifying potassium channel KCNH2 (Homo sapiens) (UniProt Q12809)

>  <category_label>
inactive

$$$$
>  <molecule>
Oc1ccc(O)c2c(O)cccc12

>  <assayed_target>
Voltage-gated inwardly rectifying potassium channel KCNH2 (Homo sapiens) (UniProt Q12809)

>  <category_label>
inactive

$$$$
